system: Gelatinase (MMP-2) (Homo sapiens, UniProt P08253)
Sequence (P08253 110-660): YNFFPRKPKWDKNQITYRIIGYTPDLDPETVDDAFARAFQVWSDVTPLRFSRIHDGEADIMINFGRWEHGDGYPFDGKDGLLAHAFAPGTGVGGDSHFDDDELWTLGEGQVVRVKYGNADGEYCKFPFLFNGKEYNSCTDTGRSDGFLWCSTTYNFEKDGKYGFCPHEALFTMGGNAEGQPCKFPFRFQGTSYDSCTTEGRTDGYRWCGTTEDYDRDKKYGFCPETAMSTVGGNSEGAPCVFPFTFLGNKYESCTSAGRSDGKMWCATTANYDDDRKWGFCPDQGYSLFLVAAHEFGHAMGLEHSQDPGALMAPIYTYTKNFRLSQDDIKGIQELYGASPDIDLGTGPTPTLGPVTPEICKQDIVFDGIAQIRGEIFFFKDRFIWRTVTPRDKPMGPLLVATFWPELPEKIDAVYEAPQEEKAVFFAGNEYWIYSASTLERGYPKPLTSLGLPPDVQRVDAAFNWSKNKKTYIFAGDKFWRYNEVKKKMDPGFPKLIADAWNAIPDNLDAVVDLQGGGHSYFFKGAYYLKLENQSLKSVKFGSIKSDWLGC
assayInfo: Gelatinase (MMP-2) inhibitory activity, fluorogenic peptide substrate cleavage
Type: biochemical
conditionSummary: read-out: MMP02 IC50
For each record, write down the corresponding pIC50.
pIC50 here is simply -log10 of the concentration when that concentration is written in mol/L.

input: Which pIC50 value is on record for CC(=O)c1cccc(-c2c[nH]c3cc(C(=O)c4ccc(Cl)c(S(N)(=O)=O)c4)ccc23)c1 [Example 121] ?
output: 5.41

input: Ok, now CCc1ccc(-c2ccc(C(=O)c3ccc(Cl)c(S(N)(=O)=O)c3)cc2)cc1 [Example 63]
output: 5.69

input: Ok, now COc1ccc(C(=O)c2ccc(C)c(S(N)(=O)=O)c2)cc1 [Example 6]
output: 5.56

input: Ok, now CC(C)(C)NC(=O)c1ccc(C(=O)c2ccc(Cl)c(S(N)(=O)=O)c2)cc1 [Example 52]
output: 4.54

input: Ok, now COc1cc(-c2c[nH]c3cc(C(=O)c4ccc(Cl)c(S(N)(=O)=O)c4)ccc23)c(Cl)cn1 [Example 134]
output: 4.64

input: Ok, now NS(=O)(=O)c1cc(C(=O)c2cc[nH]c2)ccc1Cl [Example 95]
output: 5.40

input: Ok, now NS(=O)(=O)c1cc(C(=O)c2ccc(N3CCCCCC3)cc2)ccc1Cl [Example 90]
output: 4.86
